Tested on: SK-OV-3
Protocol notes: NCI tumour cell line growth inhibition, 48 h
Calls of active or inactive are those of the source. No stated cut-off is given here; in the data, active = GI50 up to about 1.1 µM and inactive = higher.
In this exercise, the only acceptable responses are active, inactive

Would you please look over these solved cases?
Compound | Class
O=C(Nc1cccc(C(F)(F)F)c1)C(=O)C(C(=O)c1ccc2ccccc2c1)C1OC(=O)c2ccccc21 (stereo not given) | inactive
CC(=O)CCC(=O)CC(O)(C(F)(F)F)C(F)(F)F | inactive
CC(C)(C)C1CC[C@H]2c3c([nH]c4ccccc34)[C@H]3C(=O)N(c4ccc(F)cc4)C(=O)[C@H]3[C@H]2C1 (stereo not given in full) | inactive

[in] Could you check what this test reported for `O=P1(c2ccccc2)Nc2ccccc2SSc2ccccc2N1` ?
[out] inactive

[in] `Nc1nc(N)c(-c2ccccc2)c(C(=O)Nc2ccccc2)n1` , same question.
[out] inactive

[in] O=C1N/C(=N/N=C/C(O)C(O)C(O)CO)N/C1=C\c1c[nH]c2ccccc12 (stereo not given) , same question.
[out] inactive

[in] COc1ccc(N2C(=O)[C@H]3[C@H]4CC(C(C)(C)C)CC[C@H]4c4c(n(C)c5ccccc45)[C@H]3C2=O)cc1 (stereo not given in full) , same question.
[out] inactive

[in] CC1(O)CC23CC1CCC2(C)C12CCCC(C)(C(=O)O1)C2CC3O (stereo not given) , same question.
[out] inactive

[in] `CCc1ccc(NC(=O)NC(=O)c2ccccc2[N+](=O)[O-])cc1Oc1ncc(Cl)cn1` , same question.
[out] active

====

Test system: Malme-3M
Protocol notes: NCI tumour cell line growth inhibition, 48 h
Activity calls are given as the source filed them. No stated cut-off is given here; in the data, active = GI50 up to about 1.1 µM and inactive = higher.
Assay readout: GI50

Compound | GI50
COC(=O)C1=CC(=O)OC1(OO)c1ccc(Br)cc1 (centres undefined) | > 100 µM (inactive)

For every record below, what is its GI50?
1. O=C(O)C(O)(c1ccc(-c2ccccc2)cc1)c1ccc(-c2ccccc2)cc1
2. CCOC(=O)C1=C(C)N(Cc2ccccc2)C2(O)C(OC)CC(=O)C3C(=O)N(c4ccccc4)C(=O)C132 (centres undefined)
3. COc1cc(/C=C2\N=C(c3ccccc3)N(c3ccc(C(=O)c4ccccc4)cc3N3C(=O)/C(=C/c4cc(OC)c(OC)c(OC)c4)N=C3c3ccccc3)C2=O)cc(OC)c1OC

[out]
23.1 µM (inactive)
14.5 µM (inactive)
13.8 µM (inactive)

====

System: HCT-116
Protocol notes: NCI tumour cell line growth inhibition, 48 h
The source made the active and inactive calls. Rule as the data show it: active = GI50 up to about 1.1 µM and inactive = higher.
In this exercise, the only acceptable responses are active, inactive

[in] Could you check what this test reported for O=C1/C(=C/c2ccc3c(c2)OCO3)SC2C=Nc3ccccc3N12 (stereo not drawn) ?
[out] inactive

[in] `CCCCn1c2c(n(CCCC)c1=S)-c1c(n(CCCC)c(=S)n1CCCC)S[Se][Se]S2` , same question.
[out] inactive

====

Test system: HOP-18
Protocol notes: NCI tumour cell line growth inhibition, 48 h
Calls of active or inactive are those of the source. No stated cut-off is given here; in the data, active = GI50 up to about 1.1 µM and inactive = higher.
In this exercise, the only acceptable responses are active, inactive

Would you please look over these solved cases?
Molecule | Class
CC(=O)OC(C)(C)/C=C/C(=O)[C@](C)(O)[C@H]1[C@H](O)C[C@@]2(C)[C@@H]3CC=C4[C@@H](C[C@H](O)C(=O)C4(C)C)[C@]3(CO)C(=O)C[C@]12C | active
NC1=C(C(=O)O)C(=O)C(Nc2c(O)cccc2C(=O)O)=CC1=O | inactive
C=C=C(C(=O)OC)[S+]([O-])c1ccc([N+](=O)[O-])cc1[N+](=O)[O-] (centres undefined) | inactive

Below: the item to evaluate.
[in] Could you check what this test reported for `COc1ccc(C(=O)NCCC2=CCCCC2)cc1` ?
[out] inactive

====

Field: GI50. Provide a value for each of the compounds that follow.
Tested on: HL-60
Protocol notes: NCI tumour cell line growth inhibition, 48 h
The source made the active and inactive calls. Rule as the data show it: active = GI50 up to about 1.1 µM and inactive = higher.

Before answering, review these 4 worked examples.
Compound | GI50
COC(=O)c1ccc(C)cc1CC1Cc2ccc(C)cc2C1=O (stereo not given) | 3.47 µM (inactive)
COC(=O)C1=C(C)N2CCOC2(C)C(C(=O)OC)C1c1ccc[nH]1 (stereo not given) | > 100 µM (inactive)
O=C1OC(C2(O)OC(=O)c3ccccc32)c2ccccc21 (stereo not given) | > 100 µM (inactive)
O=C(c1ccc(Cl)cc1)c1ccc(OCCCOc2ccc(C(=O)c3ccc(Cl)cc3)cc2)cc1 | > 100 µM (inactive)

Shifting focus to the compound that follows.
[in] Reported GI50, compound `COc1ccccc1NC(=O)C1=C(C)NC(C)=C(C(=O)Nc2ccccc2OC)C1c1ccccc1[N+](=O)[O-]` : ____
[out] 20.2 µM (inactive)

====

Test system: NCI-H460
Protocol notes: NCI tumour cell line growth inhibition, 48 h
Activity calls are given as the source filed them. No stated cut-off is given here; in the data, active = GI50 up to about 1.1 µM and inactive = higher.
Field: GI50. Provide a value for each of the compounds that follow.

For every record below, what is its GI50?
1. CN1CCC2(CC1)SSC1(CCN(C)CC1)S2
2. O=c1c2sc3nc(NCCN4CCCCC4)ncc3c2ncn1-c1ccccc1
3. CCOc1ccc2nc(NC(=O)C(=O)C3C(=O)C(CC4C(=O)c5ccccc5C4=O)C(=O)CC3(C)C)sc2c1 (stereo not given)
4. OCCN(C1=NCCN1)/[N+](=C/c1ccccc1O)[CH-]c1ccccc1O

[out]
1: > 100 µM (inactive); 2: 55.6 µM (inactive); 3: > 100 µM (inactive); 4: > 100 µM (inactive)

[in] Reported GI50, compound `Cc1cc(C)cc(Sc2c([N+](=O)[O-])ncn2C)c1` : ____
[out] 18.2 µM (inactive)

====

Test system: U-251
Protocol notes: NCI tumour cell line growth inhibition, 48 h
Activity calls are given as the source filed them. Cut-off read from the data, not from the text of the source: active = GI50 up to about 1.1 µM and inactive = higher.
Assay readout: GI50

Before answering, review these 4 worked examples.
Compound | GI50
COc1ccc(-c2c(C(C)=O)c(-c3ccccc3)n(C3OC(CO)C(O)C(O)C3O)c(=S)c2C#N)cc1 (stereo not given) | > 100 µM (inactive)
O=C1OC(c2ccccc2)=N/C1=C\c1ccc(Oc2ccc(Cl)c(Cl)c2)cc1 | 24.1 µM (inactive)
CC[N+](C)(CC)Cc1ccccc1[N+](=O)[O-] | 53.7 µM (inactive)
CC(C)(C)C1CC[C@H]2c3c([nH]c4ccccc34)[C@H]3C(=O)N(c4ccc(F)cc4)C(=O)[C@H]3[C@H]2C1 (stereo not given in full) | 8.75 µM (inactive)

Shifting focus to the compound that follows.
[in] Reported GI50, compound CC(C)(C)[Si](C)(C)OCC1OC(n2cnc3c(N)ncnc32)CC1OS(C)(=O)=O (stereo not given) : ____
[out] > 100 µM (inactive)

====

System: DMS-273
Protocol notes: NCI tumour cell line growth inhibition, 48 h
Active and inactive are the calls of the source. Rule as the data show it: active = GI50 up to about 1.1 µM and inactive = higher.
Field: GI50. Provide a value for each of the compounds that follow.

Compound | GI50
Nc1ccc(C(=O)NN2C(=O)C(Cl)C2c2cc(Br)cc(Br)c2O)cc1 (stereo not given) | 6.4 µM (inactive)
COC(=O)C(CCC#N)(CCC#N)C(=O)OC | > 100 µM (inactive)
COC(=O)C(=O)C(C(=O)C=C(C)C)C(=O)C(=O)Nc1nc2ccc([N+](=O)[O-])cc2s1 (stereo not given) | 47.6 µM (inactive)
CC1=C(C(=O)Nc2ccccc2C)C(c2ccc(N(C)C)cc2)C(C(=O)Nc2ccccc2C)=C(C)N1 | 64.9 µM (inactive)
O=S(=O)(SCCCCSS(=O)(=O)c1ccc(Cl)cc1)c1ccc(Cl)cc1 | 10.3 µM (inactive)

For every record below, what is its GI50?
1. Nc1c(-c2ccc(Cl)cc2Cl)[n+]([O-])c2ccccc2[n+]1[O-]
2. CCN1CCC(O)(c2ccc(C)cc2)C(C(=O)c2ccc(C)cc2)C1 (stereo not given)
3. O=[N+]([O-])c1ccc(C2=NN(c3ccccc3)C[N+](c3ccc(Br)cc3)=N2)cc1

[out]
1: > 100 µM (inactive); 2: 19.8 µM (inactive); 3: > 100 µM (inactive)

For every record below, what is its GI50?
1. NCCCOCC(=O)O
2. Cc1cc(Cl)ccc1NC(=O)CC/C(CC(=O)C(C)C)=N\NC(=O)C[n+]1ccccc1

[out]
1: > 100 µM (inactive); 2: > 100 µM (inactive)

====

Test system: SK-MEL-28
Protocol notes: NCI tumour cell line growth inhibition, 48 h
Calls of active or inactive are those of the source. Cut-off read from the data, not from the text of the source: active = GI50 up to about 1.1 µM and inactive = higher.
In this exercise, the only acceptable responses are T (active), F (inactive)

Would you please look over these solved cases?
Compound | Target desc | Class
CN(C)c1ccc2c(c1)C(=O)N(OS(=O)(=O)c1ccc([N+](=O)[O-])cc1)C2=O | SK-MEL-28 | F
CCCS(=O)OC1C(C2COC(C)(C)O2)OC2OC(C)(C)OC21 (stereo unspecified) | SK-MEL-28 | F
CN(C)c1nc(N(C)C)nc(N(C)C)n1 [ALTRETAMINE] | SK-MEL-28 | F
C=CCC(O[Si](C)(C)C(C)(C)C)c1cc(O[Si](C)(C)C(C)(C)C)ccc1OC (stereo unspecified) | SK-MEL-28 | F
CCn1c(CSc2nc(-c3ccccc3)c(-c3ccccc3)[nH]2)n[nH]c1=S | SK-MEL-28 | F
CCOC(=O)NC(C(=O)OCC)C(F)(F)F (stereo unspecified) | SK-MEL-28 | F
OC(COc1ccc(Cl)cc1Cl)CN1CCCC1 (stereo unspecified) | SK-MEL-28 | F
COc1ccc(NCc2cc(OC)c(OC)c(OC)c2)cc1 | SK-MEL-28 | T

[in] Could you check what this test reported for `CCc1ccc(NC(=O)NC(=O)c2ccccc2[N+](=O)[O-])cc1Oc1ncc(Cl)cn1` ?
[out] T

[in] `Cc1ccc2oc3c(ccc(=O)n3C)c(=O)c2c1` , same question.
[out] F

[in] `Cc1ccc(/N=C2N=C(Cl)/C(=C\c3ccccc3)N\2)cc1` , same question.
[out] F
